From: the RNAGym collection of RNA variant scans (doi:10.1073/pnas.2313332121)

B1: TPR t1 (parent)
chain: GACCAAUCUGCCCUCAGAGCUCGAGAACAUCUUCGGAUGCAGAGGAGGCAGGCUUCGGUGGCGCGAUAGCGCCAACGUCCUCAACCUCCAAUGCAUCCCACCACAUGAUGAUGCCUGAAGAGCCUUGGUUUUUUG

# Variants of: B1
# Method Summary: polymerase ribozyme fitness, log enrichment relative to wild type (log ratio); higher = more active; in vitro selection for triplet polymerase activity
Each entry gets no (0) if its polymerase ribozyme fitness (log ratio) stays under -3, and yes (1) if its polymerase ribozyme fitness (log ratio) is -3 or above.

(Q) Reported polymerase ribozyme fitness (log ratio) reaches at least -3 for C72A C94U G120C ?
(A) yes (1)

(Q) Reported polymerase ribozyme fitness (log ratio) reaches at least -3 for C12A C62A C98A ?
(A) no (0)

(Q) Reported polymerase ribozyme fitness (log ratio) reaches at least -3 for U9A G36C ?
(A) yes (1)

(Q) Reported polymerase ribozyme fitness (log ratio) reaches at least -3 for C11U C12A U14G G36U ?
(A) no (0)

(Q) Reported polymerase ribozyme fitness (log ratio) reaches at least -3 for C13U A41C G52U G60C G120A U126G ?
(A) yes (1)

(Q) Reported polymerase ribozyme fitness (log ratio) reaches at least -3 for C20G C53G ?
(A) no (0)

(Q) Reported polymerase ribozyme fitness (log ratio) reaches at least -3 for G69A C114U ?
(A) no (0)

(Q) Reported polymerase ribozyme fitness (log ratio) reaches at least -3 for C13U G45U G117U ?
(A) yes (1)

(Q) Reported polymerase ribozyme fitness (log ratio) reaches at least -3 for C20A C40U U132A ?
(A) yes (1)

(Q) Reported polymerase ribozyme fitness (log ratio) reaches at least -3 for C49G A90C ?
(A) no (0)

(Q) Reported polymerase ribozyme fitness (log ratio) reaches at least -3 for C98G U116A C124G ?
(A) no (0)

(Q) Reported polymerase ribozyme fitness (log ratio) reaches at least -3 for U78C U112A A118U ?
(A) yes (1)

(Q) Reported polymerase ribozyme fitness (log ratio) reaches at least -3 for G48A U130G ?
(A) yes (1)

(Q) Reported polymerase ribozyme fitness (log ratio) reaches at least -3 for C49U C70U ?
(A) yes (1)

(Q) Reported polymerase ribozyme fitness (log ratio) reaches at least -3 for C11G C13U C101G ?
(A) yes (1)

(Q) Reported polymerase ribozyme fitness (log ratio) reaches at least -3 for G71U A91U U132C ?
(A) yes (1)

(Q) Reported polymerase ribozyme fitness (log ratio) reaches at least -3 for A5U C53U C64U U106A ?
(A) yes (1)

(Q) Reported polymerase ribozyme fitness (log ratio) reaches at least -3 for C20A A37U A83C ?
(A) no (0)

(Q) Reported polymerase ribozyme fitness (log ratio) reaches at least -3 for C34G C73U C104G U116C A121C G122U ?
(A) no (0)

(Q) Reported polymerase ribozyme fitness (log ratio) reaches at least -3 for G42A C94G U130G ?
(A) no (0)

(Q) Reported polymerase ribozyme fitness (log ratio) reaches at least -3 for C40A G60U A91G G135C ?
(A) no (0)
